- Tested on: L1210 leukemia ip in BDF1 mice, survival T/C
- method description: NCI In Vivo Anticancer Drug Screen. Data for tumor model L1210 Leukemia (intraperitoneal) in B6D2F1 (BDF1) mice
- applied conditions: endpoint: mean survival time; dose: 200.0 mg/kg/injection; schedule: Q04DX002 (ip); vehicle: Klucel (hydroxypropylcellulose) (HPC); higher = longer survival
Toxic doses and inconclusive results are not listed.
Quick reference: T/C of the listed items.

Sample answers from the record:
- Cc1ccc(C(=O)N2C(=O)Cc3ccccc32)cc1: 94 % of control
- S=c1[nH]c2cc(Cl)ccc2s1: 96 % of control
- O=C1OCC/C1=C\OCCCO/C=C1\CCOC1=O: 87 % of control

Now for a further molecule.
Which T/C value is on record for COC(=O)c1ccc(OC)c(-c2cc(OC)ccc2C(=O)OC)c1 ? 101 % of control

* * *

Quick reference: T/C of the listed items.
- Tested on: L1210 leukemia ip in BDF1 mice, survival T/C
- method description: NCI In Vivo Anticancer Drug Screen. Data for tumor model L1210 Leukemia (intraperitoneal) in B6D2F1 (BDF1) mice
- applied conditions: endpoint: mean survival time; dose: 50.0 mg/kg/injection; schedule: Q01DX009 (ip); vehicle: water; higher = longer survival
Inconclusive results and toxic doses are left out.

Sample answers from the record:
• CN=C(N)Nc1ccc(C(=O)Oc2ccc([N+](=O)[O-])cc2)cc1 = 102 % of control
• CC(C)(Br)C(=O)c1ccc(-c2ccccc2)cc1 = 101 % of control
• CC1=CC(c2ccc3c(c2)OCO3)c2c(c3ccccc3oc2=O)O1 (centres undefined) = 86 % of control

Now for a further compound.
Which T/C value is on record for O=C(O)CNC1CSSC1 ? 106 % of control

* * *

- Test system: L1210 leukemia ip in BDF1 mice, survival T/C
- method description: NCI In Vivo Anticancer Drug Screen. Data for tumor model L1210 Leukemia (intraperitoneal) in B6D2F1 (BDF1) mice
- applied conditions: endpoint: mean survival time; dose: 50.0 mg/kg/injection; schedule: Q01DX009 (ip); vehicle: Klucel (hydroxypropylcellulose) (HPC); higher = longer survival
Toxic doses and inconclusive results are not listed.
Quick reference: T/C of the listed items.

Sample answers from the record:
• O=C(O)c1c(O)c(-c2ccccc2)nc2ccccc12 = 101 % of control
• O=S(=O)(C(Cl)(Cl)Cl)C(Cl)(Cl)Cl = 98 % of control

Item: CC(O)/C(=N/Nc1ccc([N+](=O)[O-])cc1[N+](=O)[O-])C(=O)O (stereo not given) Test system: L1210 leukemia ip in BDF1 mice, survival T/C Read-out: T/C Value: ? 106 % of control

Now the same for CC1CC(NC(=S)N(C)C)CC(C)(C)C1 (stereo not given) 92 % of control

Now the same for CCOC(=O)C(N=Nc1ccccc1)C(C)=O (stereo not given) 94 % of control

Now the same for CC(=O)/C=N/Nc1ccccc1 97 % of control

Now the same for CC1=CC(c2c(O)cccc2O)C(=C(C)C)CC1 (stereo not given) 95 % of control

Now the same for CC1(C)N=C(N)N=C(N)N1c1ccc(Cl)cc1Cl 94 % of control

Now the same for Cc1ccc(CNC(=S)NC2CCCCC2)cc1C 93 % of control

Now the same for Nc1nc2ccccc2c(Cl)c1Cl 86 % of control

* * *

- Tested on: L1210 leukemia ip in BDF1 mice, survival T/C
- method description: NCI In Vivo Anticancer Drug Screen. Data for tumor model L1210 Leukemia (intraperitoneal) in B6D2F1 (BDF1) mice
- applied conditions: endpoint: mean survival time; dose: 200.0 mg/kg/injection; schedule: Q04DX003 (ip); vehicle: saline; higher = longer survival
Inconclusive results and toxic doses are left out.
Quick reference: T/C of the listed items.

Which T/C value is on record for Cc1ccccc1OCC(O)CO (stereo not given) ? 111 % of control

Now the same for CC(=O)NN=C(C)C 99 % of control

Now the same for COc1cc(C(=O)OC(C)CN2CCOCC2)cc(OC)c1OC (stereo not given) 101 % of control

Now the same for COC(=O)C1C2C3CC(C4CC43)C12 (stereo not given) 107 % of control

Now the same for CC(CS(=O)(=O)O)NC(CO)(CO)CO (stereo not given) 100 % of control

Now the same for COC1OC2COC(c3ccccc3)OC2C(OC)C1OC(=O)c1ccccc1 (stereo not given) 91 % of control

Now the same for COC(=O)C(C)O (stereo not given) 105 % of control

* * *

- Test system: L1210 leukemia ip in BDF1 mice, survival T/C
- method description: NCI In Vivo Anticancer Drug Screen. Data for tumor model L1210 Leukemia (intraperitoneal) in B6D2F1 (BDF1) mice
- applied conditions: endpoint: mean survival time; dose: 100.0 mg/kg/injection; schedule: Q04DX003 (ip); vehicle: acetone; higher = longer survival
Inconclusive results and toxic doses are left out.
observable: T/C

Sample answers from the record:
• COc1ccc(CN2CCCN(Cc3ccc(OC)cc3)C2c2ccc(OC)cc2)cc1 = 94 % of control
• ClC(Cl)(Cl)C/C=C\CBr = 92 % of control
• CC(=O)Oc1ccc(N2C(=O)C=CC2=O)cc1 (tested in a mixture with another compound) = 96 % of control
• O=C(O)CCSc1ccc2c(c1)CCCC2 = 99 % of control

Now for a further molecule.
Which T/C value is on record for O=C(NCCNC(=O)c1cccnc1)c1ccncc1 ? 95 % of control

* * *

Quick reference: T/C of the listed items.
- System: L1210 leukemia ip in BDF1 mice, survival T/C
- method description: NCI In Vivo Anticancer Drug Screen. Data for tumor model L1210 Leukemia (intraperitoneal) in B6D2F1 (BDF1) mice
- applied conditions: endpoint: mean survival time; dose: 400.0 mg/kg/injection; schedule: Q04DX003 (ip); vehicle: Klucel (hydroxypropylcellulose) (HPC); higher = longer survival
Inconclusive results and toxic doses are left out.

Sample answers from the record:
• O=C1NC(=O)C(c2cc(Cl)co2)N1 (stereo not drawn) = 101 % of control
• CCC(CCC(C)C1CCC2C3CC=C4CC(OC5OC(CO)C(O)C(O)C5O)CCC4(C)C3CCC12C)C(C)C (stereo not drawn) = 90 % of control
• CC12C=CC(CC1)C2OC(=O)c1ccccc1C(=O)O (stereo not drawn) = 92 % of control
• CCN(CC)CCNc1ncnc2c1cnn2-c1ccc(Cl)cc1 = 95 % of control
• O=C(O)C1C=CC(C(=O)O)c2ccccc21 (stereo not drawn) = 98 % of control
• COc1cccc(CNc2ccc(C)cc2C)c1OC = 97 % of control

Which T/C value is on record for NC(=S)c1cccnc1 ? 109 % of control

Now the same for S=C(c1ccc2ccccc2n1)N1CCOCC1 105 % of control

Now the same for Cc1ccccc1NC(=O)Nc1cccc(C)c1C 94 % of control

* * *

Quick reference: T/C of the listed items.
- Test system: L1210 leukemia ip in BDF1 mice, survival T/C
- method description: NCI In Vivo Anticancer Drug Screen. Data for tumor model L1210 Leukemia (intraperitoneal) in B6D2F1 (BDF1) mice
- applied conditions: endpoint: mean survival time; dose: 100.0 mg/kg/injection; schedule: Q01DX009 (ip); vehicle: Klucel (hydroxypropylcellulose) (HPC); higher = longer survival
- Experimental: The antitumor activity of compounds was measured in mice bearing transplantable tumors. Survival or tumor size were measured and the results are expressed as the measurement made in the treated group (T) divided by the measurement made in the vehicle treated control group (C). The tumor model used in this assay is L1210 Leukemia (intraperitoneal) in B6D2F1 (BDF1) mice
Toxic doses and inconclusive results are not listed.

Sample answers from the record:
- Cc1ccc(NS(=O)(=O)c2ccccc2)cc1Cl: 106 % of control
- O=S1(=O)CC23C=CC=CC2(CCCC3)C1Cl (stereo not drawn): 94 % of control
- Cc1ccc(S(=O)(=O)Oc2ccccc2)cc1: 96 % of control
- Cc1ccccc1NC(=O)Nc1ccccc1F: 99 % of control
- NS(=O)(=O)c1ccc(NC(=O)Nc2ccc(Cl)cc2[N+](=O)[O-])cc1: 94 % of control
- O=C(Nc1ccc(Nc2ccccc2)cc1)Nc1ccccc1F: 97 % of control

Which T/C value is on record for O=C(Nc1ccc(Nc2ccccc2)cc1)Nc1ccccc1Cl ? 90 % of control

* * *

Quick reference: T/C of the listed items.
- System: L1210 leukemia ip in BDF1 mice, survival T/C
- method description: NCI In Vivo Anticancer Drug Screen. Data for tumor model L1210 Leukemia (intraperitoneal) in B6D2F1 (BDF1) mice
- applied conditions: endpoint: mean survival time; dose: 100.0 mg/kg/injection; schedule: Q01DX009 (ip); vehicle: acetone; higher = longer survival
- Protocol: The antitumor activity of compounds was measured in mice bearing transplantable tumors. Survival or tumor size were measured and the results are expressed as the measurement made in the treated group (T) divided by the measurement made in the vehicle treated control group (C). The tumor model used in this assay is L1210 Leukemia (intraperitoneal) in B6D2F1 (BDF1) mice
Toxic doses and inconclusive results are not listed.

• COc1c(Cl)cc([N+](=O)[O-])c(OC)c1[N+](=O)[O-] = 90 % of control

Which T/C value is on record for ClC(Cl)(Cl)C/C=C\CBr ? 93 % of control

Now the same for Cc1ccc(S(=O)(=O)N(CC(=O)O)c2c[nH]c(C(=O)O)c2)cc1 92 % of control

Now the same for NC(=O)n1cncn1 89 % of control
